Kindly supply the reported GI50 values for the records listed here.
Test system: CAKI-1 renal
Experiment: NCI tumour cell line growth inhibition, 48 h

Use the examples below as a reference point.
compoundSmiles: COc1ccc(OC)c2c1[nH]c(=O)c1c3ncccc3cn21
reportedValue: 3.23 µM
--
compoundSmiles: Nc1nc(N)c2cc(NCc3ccc(Cl)c(Cl)c3)ccc2n1
reportedValue: 1.37 µM
--
compoundSmiles: COc1ccc(OC)c(-c2cc(-c3ccc(Cl)cc3)nn2-c2ccc(S(=O)(=O)NC(C)=O)cc2)c1
reportedValue: 37.6 µM

Consider now this further molecule.
CAKI-1 renal GI50 of NC(=O)c1cccc(Nc2nccc(Nc3cccc4[nH]ncc34)n2)c1 is 14.6 µM

---

Test system: BT-549 breast
Test: NCI tumour cell line growth inhibition, 48 h; in the data active = GI50 below about 0.43 µM; inactive = the rest
Outcome (select one): active, inactive

# outcome recorded in this test, key = Cc1cc(CC(C)CC(C)(C)C)n(O)c(=O)c1 (centres undefined) (tested in a mixture with another compound)
active

# outcome recorded in this test, key = CCOC(=O)CC1C(COC(=O)NC)OC(n2cnc3c(NC(=O)Nc4ccccc4)ncnc32)C1O[Si](C)(C)C(C)(C)C (centres undefined)
inactive

# outcome recorded in this test, key = COc1ccc(C(=O)c2cc3c(N)c(C(=O)Nc4ccc(C)cc4)sc3nc2C)cc1
inactive

# outcome recorded in this test, key = Cc1cc(C)c(Cn2cnc3c(Cl)ncnc32)c(C)c1CCl
inactive

# outcome recorded in this test, key = COc1ccc(/C=N\Nc2ccc([N+](=O)[O-])cn2)cc1OC
inactive

# outcome recorded in this test, key = Cc1nc(N2CCC3(CC2)CO[C@@H](C)[C@H]3N)c(CO)nc1Sc1ccnc(N)c1Cl
inactive

# outcome recorded in this test, key = CNC(=O)Cc1nc(-c2cccc(NS(=O)(=O)c3c(F)cccc3F)c2F)c(-c2ccnc(Nc3ccccc3)n2)s1
inactive

# outcome recorded in this test, key = CN1C(=O)N[C@H]2[C@@H]3NC(=O)c4ccc(Br)n4[C@@H]3C[C@]21O
active

# outcome recorded in this test, key = CCn1c(-c2cc3ccccc3cc2O)nn(C(=O)c2c(Cl)cccc2Cl)c1=S
inactive

---

System: CCRF-CEM leukemia
Assay: NCI tumour cell line growth inhibition, 48 h
Kindly supply the reported TGI values for the records listed here.

molecule: C=C1C(=O)O[C@@H]2C[C@]3(C)CC[C@]4(C)[C@H](CC[C@@H]5[C@@]6(C)CCC(=O)C(C)(C)[C@@H]6CC[C@]54C)[C@H]3[C@H]12
TGI: 6.14 µM
//
molecule: O=C1c2cc(Cl)ccc2NC(=NCCCl)C2CSCN12 (stereo not drawn)
TGI: > 100 µM
//
molecule: Cc1cn([C@@H]2O[C@H](CO[Si](C)(C)C(C)(C)C)[C@]3(O[C@H]3C(=O)NN)[C@H]2O[Si](C)(C)C(C)(C)C)c(=O)[nH]c1=O
TGI: 5.43 µM
//
molecule: COc1ccc(N2C(=O)C3c4[nH]c5ccc(F)cc5c4C4CCC(c5ccccc5)CC4C3C2=O)cc1 (stereo not drawn)
TGI: 16.5 µM
//
molecule: Cc1c(C(=O)/C=C/c2ccccc2O)c(=O)n(-c2ccccc2)n1C
TGI: 86.9 µM

Consider the following items and state reported TGI for each.
1. C=C(Nc1ccc([N+](=O)[O-])cc1[N+](=O)[O-])c1c/c(=N\NC(N)=S)c2ccccc2o1
2. O=[N+]([O-])CCc1cccc([N+](=O)[O-])c1
3. Cc1c(C(=O)/C=C/c2ccc(N(C)C)cc2)c(=O)n(-c2ccccc2)n1C

> 100 µM
> 100 µM
> 100 µM
